- TARGET_OF_ASSAY: HIV-1 JR-CSF Env F210A (HIV-1 JR-CSF) (UniProt P20871)
- TEST_NAME: cell-based or functional assay
PARAMETER: Fold IC50 increase relative to wild-type (fold)
Output spec: scalar in fold, unitless text.

// recorded Fold IC50 increase relative to wild-type for PGT-126 (antibody, V domains shown) VH: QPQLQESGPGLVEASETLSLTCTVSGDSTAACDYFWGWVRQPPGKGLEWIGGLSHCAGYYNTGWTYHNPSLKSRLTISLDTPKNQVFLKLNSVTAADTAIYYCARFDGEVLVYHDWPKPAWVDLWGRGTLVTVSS VL: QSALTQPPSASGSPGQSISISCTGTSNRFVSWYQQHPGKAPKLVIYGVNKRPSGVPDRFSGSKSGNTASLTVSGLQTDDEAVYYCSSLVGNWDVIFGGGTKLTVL : 1.5

Briefly, Fold IC50 increase relative to wild-type measured for PGT-128 (antibody, V domains shown) VH: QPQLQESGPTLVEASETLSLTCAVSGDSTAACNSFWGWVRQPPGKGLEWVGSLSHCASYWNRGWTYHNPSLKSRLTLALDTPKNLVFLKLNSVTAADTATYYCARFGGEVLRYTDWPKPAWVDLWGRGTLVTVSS VL: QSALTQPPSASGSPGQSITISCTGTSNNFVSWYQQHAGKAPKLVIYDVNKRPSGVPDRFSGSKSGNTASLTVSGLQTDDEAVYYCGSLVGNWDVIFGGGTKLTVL : 0.8

Value of Fold IC50 increase relative to wild-type reported for the binder PGT-125 (antibody, V domains shown) VH: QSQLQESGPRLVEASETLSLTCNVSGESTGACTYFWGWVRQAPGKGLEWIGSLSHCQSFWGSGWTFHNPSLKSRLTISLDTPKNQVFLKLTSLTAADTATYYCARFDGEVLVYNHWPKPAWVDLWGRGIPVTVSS VL: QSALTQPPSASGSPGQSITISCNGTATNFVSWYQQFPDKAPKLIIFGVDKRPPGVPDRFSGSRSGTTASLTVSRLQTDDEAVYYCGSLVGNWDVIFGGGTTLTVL is 1.4
